- PROCEDURE DETAILS: Rat pharmacokinetic model (IV vs microspray aerosol, intratracheal)
- Format: in vivo, rats
- APPLIED CONDITIONS: rat, serum, iv, 8 mg/kg; read-out: Serum t1/2 (converted)
MEASUREMENT NAME: half-life (h)
Write the number in h without appending the unit.

Documented half-life of CO/N=C1\CN(c2nc3c(cc2F)c(=O)c(C(=O)O)cn3C2CC2)CC1CN (stereo not shown) [Gemifloxacin] : 1.04

----------
Catalogue of Initial Solution pH values
- PROCEDURE DETAILS: physchem
- APPLIED CONDITIONS: 10 mg/mL in sterile water
Answer with the value's number alone.

INSERT INTO results (compound, reported_measurement) VALUES
  ('NC1CCN(c2nc3c(cc2F)c(=O)c(C(=O)O)cn3-c2ccc(F)cc2F)C1 (stereo not shown)', 3.5),
  ('C[C@@H]1CN(c2c(F)c(N)c3c(=O)c(C(=O)O)cn(C4CC4)c3c2F)C[C@H](C)N1', 5.0),
  ('COc1c(N2CCNC(C)C2)c(F)cc2c(=O)c(C(=O)O)cn(C3CC3)c12 (stereo not shown)', 7.0),
  ('CCn1cc(C(=O)O)c(=O)c2cc(F)c(N3CCNC(C)C3)c(F)c21 (stereo not shown)', 4.2),
  ('CO/N=C1\CN(c2nc3c(cc2F)c(=O)c(C(=O)O)cn3C2CC2)CC1CN (stereo not shown)', 4.7),
  ('CN1CCN(c2c(F)cc3c(=O)c(C(=O)O)cn4c3c2OCN4C)CC1', 6.5);

Please turn your attention to the following entry.
The recorded Initial Solution pH for `N[C@@H]1[C@H]2CN(c3nc4c(cc3F)c(=O)c(C(=O)O)cn4-c3ccc(F)cc3F)C[C@@H]12` is 4.2
